Molecular target: P-gp (MDR1 expressing LLC-PK1 cells) (Homo sapiens, UniProt P08183)
Construct: host or cells: LLC-PK1
Sequence (P08183 whole entry): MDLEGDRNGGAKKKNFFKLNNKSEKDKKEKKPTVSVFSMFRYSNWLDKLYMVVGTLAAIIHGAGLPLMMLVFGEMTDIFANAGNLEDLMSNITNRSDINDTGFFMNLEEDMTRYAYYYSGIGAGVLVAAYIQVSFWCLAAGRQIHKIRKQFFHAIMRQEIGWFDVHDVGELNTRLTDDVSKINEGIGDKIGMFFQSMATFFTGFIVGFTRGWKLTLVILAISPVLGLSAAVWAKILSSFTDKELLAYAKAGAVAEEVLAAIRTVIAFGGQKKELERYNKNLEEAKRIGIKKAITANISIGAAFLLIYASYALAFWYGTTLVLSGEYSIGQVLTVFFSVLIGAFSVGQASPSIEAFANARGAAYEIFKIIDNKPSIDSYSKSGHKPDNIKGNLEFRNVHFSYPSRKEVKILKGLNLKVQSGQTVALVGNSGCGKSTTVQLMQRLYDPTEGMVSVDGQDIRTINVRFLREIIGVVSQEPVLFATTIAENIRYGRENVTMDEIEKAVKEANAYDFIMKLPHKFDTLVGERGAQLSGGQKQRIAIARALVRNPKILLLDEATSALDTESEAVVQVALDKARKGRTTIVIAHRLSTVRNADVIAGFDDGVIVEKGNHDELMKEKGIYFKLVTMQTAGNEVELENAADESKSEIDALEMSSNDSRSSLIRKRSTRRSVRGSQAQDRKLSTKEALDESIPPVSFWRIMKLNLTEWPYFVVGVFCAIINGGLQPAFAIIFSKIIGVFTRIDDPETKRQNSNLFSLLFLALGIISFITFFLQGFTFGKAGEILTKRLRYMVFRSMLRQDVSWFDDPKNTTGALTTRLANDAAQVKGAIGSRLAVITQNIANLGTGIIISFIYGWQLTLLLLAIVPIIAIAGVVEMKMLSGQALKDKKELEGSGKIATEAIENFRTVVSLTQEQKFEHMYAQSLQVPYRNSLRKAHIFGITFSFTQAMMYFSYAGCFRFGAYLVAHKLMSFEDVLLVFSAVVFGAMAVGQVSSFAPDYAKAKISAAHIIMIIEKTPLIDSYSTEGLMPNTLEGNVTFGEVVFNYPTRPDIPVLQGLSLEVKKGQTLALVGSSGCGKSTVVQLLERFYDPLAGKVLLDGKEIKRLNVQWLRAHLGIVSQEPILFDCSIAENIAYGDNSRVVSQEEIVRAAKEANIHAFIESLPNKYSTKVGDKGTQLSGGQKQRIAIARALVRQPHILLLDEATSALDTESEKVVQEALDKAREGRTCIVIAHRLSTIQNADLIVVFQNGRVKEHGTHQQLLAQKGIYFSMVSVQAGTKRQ
Assay: P-gp substrate test
Format: in vitro ADME
Conditions: net flux = Efflux Ratio in MDR1 expressing cells / Efflux Ratio in parent LLC-PK1 cells
Please note: class 1 applies when ER ratio (Cell: MDR1/LLC-PK1) is 1 or greater, and class 0 applies otherwise.

>>> print(df.to_string())
                               sample_smiles    group
 0  C[C@H]1[C@@H](C(F)(F)F)OC(N)=N[C@]1(C)c1cc(NC(=O)c2cnc(OCF)cn2)ccc1F  class 1
 1  C[C@H]1SC(N)=N[C@](C)(c2cc(NC(=O)c3ccc(OCF)cn3)ccc2F)[C@H]1F  class 0
 2  C[C@@H](F)[C@H]1OC(N)=N[C@](C)(c2cc(NC(=O)c3ccc(C#N)cn3)ccc2F)[C@H]1F  class 1
 3  C[C@H]1SC(N)=N[C@](C)(c2cc(NC(=O)c3cnc(OCC(F)F)cn3)ccc2F)[C@H]1F  class 1
 4  COc1cnc(C(=O)Nc2ccc(F)c([C@@]3(C)N=C(N)O[C@H]([C@H](C)F)[C@@H]3F)c2)cn1  class 0
 5  C[C@]1(c2cc(NC(=O)c3cnc(OCF)cn3)ccc2F)N=C(N)OCC12CC(F)(F)C2  class 1
 6  C[C@H]1[C@@H](C(F)F)OC(N)=N[C@]1(C)c1cc(NC(=O)c2cnc(OCF)cn2)ccc1F  class 1
 7  C[C@H](F)[C@H]1OC(N)=N[C@](C)(c2cc(NC(=O)c3ccc(C#N)cn3)ccc2F)[C@H]1F  class 1
 8  COc1cnc(C(=O)Nc2ccc(F)c([C@@]3(C)N=C(N)O[C@H]([C@@H](C)F)[C@@H]3F)c2)cn1  class 0
 9  COc1cnc(C(=O)Nc2ccc(F)c([C@@]3(C)N=C(N)SCC34CC(F)(F)C4)c2)cn1  class 0
10  COCC(F)(F)[C@H]1OC(N)=N[C@](C)(c2cc(NC(=O)c3cnc(OCF)cn3)ccc2F)[C@H]1F  class 1
11  C[C@H]1SC(N)=N[C@](C)(c2cc(NC(=O)c3cnc(OCC(F)(F)F)cn3)ccc2F)[C@H]1F  class 1
12  CC[C@H]1SC(N)=N[C@](C)(c2cc(NC(=O)c3cnc(OCF)cn3)ccc2F)[C@H]1F  class 0

====

Assay: Brain distribution studies
Assay type: in vivo
Conditions: rat, brain / plasma, iv, 0.5 mg/mL/kg, 30 minutes later, area ratio brain/plasma
Kp at 0.5 h values by entry
readout: Kp at 0.5 h

>>> print(df.to_string())
                                   compound  assay_value
0  C[C@H]1SC(N)=N[C@](C)(c2nc(NC(=O)c3ccc(F)cn3)ccc2F)[C@H]1F [Compound I-2]          2.9
1  C[C@H]1[C@@H](C(F)(F)F)OC(N)=N[C@]1(C)c1cc(NC(=O)c2cnc(OCF)cn2)ccc1F [Compound I-30]          3.2
2  COc1cnc(C(=O)Nc2ccc(F)c([C@@]3(C)N=C(N)S[C@H](C)[C@@H]3F)c2)cn1 [Compound I-8]          1.8
3  C[C@@]1(c2cc(NC(=O)c3ccc(C#N)cn3)ccc2F)C[C@@](C)(C(F)(F)F)OC(N)=N1 [Compound I-7]            2
